IC50 values for the compounds below.
- target.desc: UniProt:P22314
- Sequence (P22314 whole entry): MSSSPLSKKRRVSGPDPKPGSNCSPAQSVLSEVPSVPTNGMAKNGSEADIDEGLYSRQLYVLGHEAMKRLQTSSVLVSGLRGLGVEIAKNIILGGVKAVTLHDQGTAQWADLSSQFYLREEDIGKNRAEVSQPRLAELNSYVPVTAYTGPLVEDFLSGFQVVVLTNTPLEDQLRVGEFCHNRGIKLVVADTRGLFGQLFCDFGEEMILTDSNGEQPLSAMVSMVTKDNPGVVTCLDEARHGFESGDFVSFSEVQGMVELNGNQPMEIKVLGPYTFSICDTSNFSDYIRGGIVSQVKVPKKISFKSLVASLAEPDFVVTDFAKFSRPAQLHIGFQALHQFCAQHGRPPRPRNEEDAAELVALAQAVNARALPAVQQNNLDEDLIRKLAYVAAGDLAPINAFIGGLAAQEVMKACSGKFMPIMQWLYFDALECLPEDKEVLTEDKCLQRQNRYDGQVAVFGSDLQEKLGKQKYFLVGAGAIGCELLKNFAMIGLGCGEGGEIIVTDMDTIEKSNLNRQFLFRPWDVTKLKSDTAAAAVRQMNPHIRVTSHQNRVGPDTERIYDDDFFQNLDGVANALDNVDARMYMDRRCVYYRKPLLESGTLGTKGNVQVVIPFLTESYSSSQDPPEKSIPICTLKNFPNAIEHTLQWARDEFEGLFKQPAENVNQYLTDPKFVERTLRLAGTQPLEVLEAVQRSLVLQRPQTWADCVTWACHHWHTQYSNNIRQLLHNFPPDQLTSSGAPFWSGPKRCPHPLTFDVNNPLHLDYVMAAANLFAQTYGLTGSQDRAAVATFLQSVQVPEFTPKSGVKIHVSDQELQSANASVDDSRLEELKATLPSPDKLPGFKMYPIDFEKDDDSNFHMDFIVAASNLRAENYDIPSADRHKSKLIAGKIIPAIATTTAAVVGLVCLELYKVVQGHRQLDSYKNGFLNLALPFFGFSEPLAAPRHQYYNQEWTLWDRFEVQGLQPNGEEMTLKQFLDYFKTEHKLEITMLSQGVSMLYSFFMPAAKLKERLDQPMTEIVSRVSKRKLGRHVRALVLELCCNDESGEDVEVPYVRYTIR
- method.summary: Inhibition of FLAG-tagged ubiquitin-activating enzyme E1 assessed as inhibition of GST-ubiquitin/FLAG-E1 intermediate formation by Western blot analysis
Respond with the bare value in µM.

| query.smiles | IC50 (µM) |
| --- | --- |
| O=C(O)[C@@H]1Cc2c([nH]c3ccc(O)cc23)[C@@H](Cc2cnc[nH]2)N1 | 2.4 |

Turning now to a further compound:
Entry O=C(O)[C@@H]1Cc2c([nH]c3ccc(O)cc23)[C@H](Cc2c[nH]cn2)N1 , IC50 reported as 35
